The measurements presented in this section are drawn from a protein production outcome set (Wang et al. 2014).

assay: label from the status in PepcDB records

| recordSequence | protein production |
| --- | --- |
| MGFDFGTVLVFAVVAVGFALGGIAASRALGPKWPNPEKASIYECGERPVGVAWFNFNPRFYLVALVFLVFEVDIALTFPVVAVFKGWVAQGPGMAWVAFFELLVFTGILVVGLAWAWAHGDLEWIKTLGAPSEEAPARAEPRRAA | failed |
| APAEIFNVVKYPAKLGDMYAYLTPPPANKKNKLPAVIWLNGGYGGIGGDDYFWTPQPVENDQTGATFRDPNMVLMIPSFRGENTNPGRYEMFYGELEDLDSAREYLASLPYVDPKRIYVVGHSTGGTRALLASEYSDKFRAIFSLGGIPDLKLRTEGRMMVELPFDKNNEEEFNVRSVYRYIKSIKTPTFYFEGHDYFWDEFNELRVVAMEHDIPLKIYNIKNGDHFNIIVPVSQLIKEKILQDTDTNKESNIRFTNEEIKWINKMVK | failed |
| MEVHYMTKIKEIKKVLQQEDADAAWITTPLNIFYFTGYRSEPHERLFALLIPSNEEPVLFCPKMEVEEVKQSPFKGKIIGYLDTENPFDKYSKTFSKMLIESEHLTVKRQRELTKAFNIEHYQDVDQSIKDLRNIK | failed |
